tested on: Enterococcus faecium; test: Antibacterial activity against Enterococcus faecium by broth microdilution method; format: functional
The compounds listed here are annotated with their MIC90.

Guide cases for MIC90, answers given:
INSERT INTO results (item_smiles, value_type, measured_result) VALUES
  ('O=C(O)c1cn(C2CC2)c2cc(N3CCNCC3)c(F)cc2c1=O', 'MIC90', '> 16 µg/mL'),
  ('COc1c(N2CCC/C(=C(\F)CN)C2)c(F)cc2c(=O)c(C(=O)O)cn(C3CC3)c12', 'MIC90', '4 µg/mL'),
  ('COc1c(N2C[C@@H]3CCCN[C@@H]3C2)c(F)cc2c(=O)c(C(=O)O)cn(C3CC3)c12', 'MIC90', '> 16 µg/mL');

Lab note: next compound to report on.
Give the measured MIC90 of CN[C@H](CC(C)C)C(=O)N[C@H]1C(=O)N[C@@H](CC(N)=O)C(=O)N[C@H]2C(=O)N[C@H]3C(=O)N[C@H](C(=O)N[C@H](C(=O)O)c4cc(O)cc(O)c4-c4cc3ccc4O)[C@H](O)c3ccc(c(Cl)c3)Oc3cc2cc(c3O[C@@H]2O[C@H](CO)[C@@H](O)[C@H](O)[C@H]2O[C@H]2C[C@](C)(N)[C@H](O)[C@H](C)O2)Oc2ccc(cc2Cl)[C@H]1O .
> 16 µg/mL
